- procedure.summary: Metabolic stability, CD-1 mouse microsomes
- Format: in vitro ADME
- condition.set: % of the initial 0 minutes value at 60 min, 10 μM, 37° C.
- Experimental: Microsomes from a human 50 donor mixed gender pool and 1:1 mixtures of microsomes from CD-1 mouse single-gender pools are purchased from Celsis (Belgium). […] After acetonitrile precipitation (2 volumes) and HPLC/MS/MS analysis metabolic turnover is expressed in % of the initial 0 minutes value and half life T½ (min) is calculated. […]
Parameter: Metabolic Stability 60 min mouse. Scope: all listed entries.
observed.property: Metabolic Stability 60 min mouse (%)

> print(dat)
                               input.smiles                 observed.property  value.observed
1  CN1CC(=O)N2C[C@H](NC(=O)CN3CCCC3)C[C@H]2COc2ccc(cc2)C(=O)N(C)[C@H](C(=O)NCc2ccncc2)CCC1=O  Metabolic Stability 60 min mouse              98
2  CNC(=O)[C@H]1CCC(=O)N(C)CC(=O)N2C[C@@H](NC(=O)Cc3ccc4ccccc4c3)C[C@H]2COc2ccc(F)cc2C(=O)N1C  Metabolic Stability 60 min mouse              15
3  CC(=O)N[C@H]1C[C@H]2COc3ccc(F)cc3C(=O)N(C)[C@H](C(=O)N3CCCC3)CCC(=O)N(C)CC(=O)N2C1  Metabolic Stability 60 min mouse             100
4  CCN(CC)[C@@H]1C[C@H]2COc3ccc(cc3)C(=O)N(C)[C@H](C(=O)NCc3ccc4ccccc4c3)CCC(=O)N(C)CC(=O)N2C1  Metabolic Stability 60 min mouse               4
5  CCCCC(=O)N[C@@H]1C[C@H]2COc3ccc(F)cc3C(=O)N(C)[C@H](C(=O)N(C)CCN(C)C)CCC(=O)N(C)CC(=O)N2C1  Metabolic Stability 60 min mouse             100
